Test system: NCI-H460
Test: relative viability (nuclei count vs DMSO), 5 days (fraction); higher = more cells survive
Details: first compound 0.006325 µM
Listed here are molecules together with their documented relative viability.

CC(=O)O[C@@]12CO[C@@H]1C[C@H](O)[C@@]1(C)C(=O)[C@H](O)C3=C(C)[C@@H](OC(=O)[C@H](O)[C@@H](NC(=O)OC(C)(C)C)c4ccccc4)C[C@@](O)([C@@H](OC(=O)c4ccccc4)[C@H]21)C3(C)C [Docetaxel] + Cc1nc(NC(=O)N2CCC[C@H]2C(N)=O)sc1-c1ccnc(C(C)(C)C(F)(F)F)c1 [Alpelisib] (partner 2 µM) :: 0.0118

Next up:
Q: // fetch NCI-H460 relative viability for CC(=O)O[C@@]12CO[C@@H]1C[C@H](O)[C@@]1(C)C(=O)[C@H](O)C3=C(C)[C@@H](OC(=O)[C@H](O)[C@@H](NC(=O)OC(C)(C)C)c4ccccc4)C[C@@](O)([C@@H](OC(=O)c4ccccc4)[C@H]21)C3(C)C [Docetaxel] + CS(=O)(=O)CCNCc1ccc(-c2ccc3ncnc(Nc4ccc(OCc5cccc(F)c5)c(Cl)c4)c3c2)o1 [Lapatinib] (partner 2 µM)
A: 0.0147
